# STUDY_TARGET: MAO A (Homo sapiens)
# TEST_METHOD_NOTES: MAO-Glo two-step bioluminescent assay, MAO A
# Assay type: biochemical
# PROTOCOL_CONDITIONS: mean ± SEM; substrate 20 µM; read-out: MAO a IC50
# Source text: Fluostar Omega 96 Microplate reader (BMG LABTECH GmbH, Ortenberg, Germany) was used to measure the luminescent signal and to determine the IC50 (half maximal inhibitory concentration).
ASSAY_READOUT: IC50 (nM)
Field format: number, assumed nM, no unit text.

Look up IC50 for this compound: CC1=C(C)C(=O)c2cc(C)ccc2C1=O 1140

---

# STUDY_TARGET: MAO A (Homo sapiens, UniProt P21397)
# Sequence (P21397 1-527): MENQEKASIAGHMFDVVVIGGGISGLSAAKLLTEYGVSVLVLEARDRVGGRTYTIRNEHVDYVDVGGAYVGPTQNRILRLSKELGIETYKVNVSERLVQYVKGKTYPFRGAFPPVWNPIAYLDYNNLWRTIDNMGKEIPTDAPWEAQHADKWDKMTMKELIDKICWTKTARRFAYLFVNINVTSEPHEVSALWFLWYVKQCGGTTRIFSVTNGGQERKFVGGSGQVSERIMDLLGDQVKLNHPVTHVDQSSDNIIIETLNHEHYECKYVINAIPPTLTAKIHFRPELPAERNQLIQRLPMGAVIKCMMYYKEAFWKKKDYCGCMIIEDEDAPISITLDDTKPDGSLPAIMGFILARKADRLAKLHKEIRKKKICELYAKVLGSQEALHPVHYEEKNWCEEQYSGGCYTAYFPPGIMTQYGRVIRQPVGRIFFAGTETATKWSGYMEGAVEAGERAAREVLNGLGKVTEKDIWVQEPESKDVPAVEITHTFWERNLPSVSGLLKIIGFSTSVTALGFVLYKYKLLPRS
# TEST_METHOD_NOTES: MAO-Glo two-step bioluminescent assay, MAO A
# Assay type: biochemical
# Excerpt: Fluostar Omega 96 Microplate reader (BMG LABTECH GmbH, Ortenberg, Germany) was used to measure the luminescent signal and to determine the IC50 (half maximal inhibitory concentration).
ASSAY_READOUT: pIC50
Quick note: pIC50 values are minus log10 of concentrations in mol/L.

For the molecule shown here, Cc1nccc2c1[nH]c1ccccc12 , give the reported pIC50. 7.30
